Source: patent US20180009877A1

Target: polypeptide HER2/ECD (human, UniProt P04626 23-646)
Assay: SPR (BIAcore), HER2/ECD immobilized, IgG in flow
ATTRIBUTE_MEASURED: pKd
pKd is a log-scale quantity: -log10 of the concentration expressed in molar.

Query block: For M62 (antibody, also called antibody M62) MAELDIQMIQSQKFMSTSVGDRVSVTCKASQNVGTNVAWYQQKPGQSPKALIHSASYRYSGVPDRFTGSGSGTDFTLTISNVQSEDLAEYFCQQYNSYPLTFGAGTKLEIKSSGGGGSGGGGGGSSRSSLEVQLQQSGTELARPGASVKLSCKASGYTFIDYYITWVKQRTGQGLEWIGEIYPGGGNPYYNDNFKGKASLTADKSSNTVYMQLSSLTSEDSAVYFCARSYKYDVSVYWGQGTLVTVSAAKTTPPSVTSAAAGAPVPYPDPLEPRAA , write its pKd.
Result block: 10.64
